- ASSAY_NOTES: Apparent oral clearance in ICR mouse at 80 mg/kg
- Format: ADME, organism-based
- Design: dose 80 mg/kg, route oral
- EXPERIMENTAL_CONTEXT: in vivo
METRIC_NAME: CL/F (mL/min/kg)
All answers are understood in mL/min/kg, so give the number only.

Give CL/F for the following compound: CCN(CC)CCCN/C(=N\c1ccnc2cc(Cl)ccc12)C(C)C
371

Give CL/F for the following compound: CCN(CC)CCC/N=C(\C)N(CCCN(CC)CC)c1c2ccc(Cl)cc2nc2ccc(OC)nc12
150

* * *

The reader will find reported inhibition at 7 min, 10 µM values listed item by item below.
- SYSTEM: hERG (KCNH2) (Homo sapiens, UniProt Q12809)
- Sequence (Q12809 whole entry): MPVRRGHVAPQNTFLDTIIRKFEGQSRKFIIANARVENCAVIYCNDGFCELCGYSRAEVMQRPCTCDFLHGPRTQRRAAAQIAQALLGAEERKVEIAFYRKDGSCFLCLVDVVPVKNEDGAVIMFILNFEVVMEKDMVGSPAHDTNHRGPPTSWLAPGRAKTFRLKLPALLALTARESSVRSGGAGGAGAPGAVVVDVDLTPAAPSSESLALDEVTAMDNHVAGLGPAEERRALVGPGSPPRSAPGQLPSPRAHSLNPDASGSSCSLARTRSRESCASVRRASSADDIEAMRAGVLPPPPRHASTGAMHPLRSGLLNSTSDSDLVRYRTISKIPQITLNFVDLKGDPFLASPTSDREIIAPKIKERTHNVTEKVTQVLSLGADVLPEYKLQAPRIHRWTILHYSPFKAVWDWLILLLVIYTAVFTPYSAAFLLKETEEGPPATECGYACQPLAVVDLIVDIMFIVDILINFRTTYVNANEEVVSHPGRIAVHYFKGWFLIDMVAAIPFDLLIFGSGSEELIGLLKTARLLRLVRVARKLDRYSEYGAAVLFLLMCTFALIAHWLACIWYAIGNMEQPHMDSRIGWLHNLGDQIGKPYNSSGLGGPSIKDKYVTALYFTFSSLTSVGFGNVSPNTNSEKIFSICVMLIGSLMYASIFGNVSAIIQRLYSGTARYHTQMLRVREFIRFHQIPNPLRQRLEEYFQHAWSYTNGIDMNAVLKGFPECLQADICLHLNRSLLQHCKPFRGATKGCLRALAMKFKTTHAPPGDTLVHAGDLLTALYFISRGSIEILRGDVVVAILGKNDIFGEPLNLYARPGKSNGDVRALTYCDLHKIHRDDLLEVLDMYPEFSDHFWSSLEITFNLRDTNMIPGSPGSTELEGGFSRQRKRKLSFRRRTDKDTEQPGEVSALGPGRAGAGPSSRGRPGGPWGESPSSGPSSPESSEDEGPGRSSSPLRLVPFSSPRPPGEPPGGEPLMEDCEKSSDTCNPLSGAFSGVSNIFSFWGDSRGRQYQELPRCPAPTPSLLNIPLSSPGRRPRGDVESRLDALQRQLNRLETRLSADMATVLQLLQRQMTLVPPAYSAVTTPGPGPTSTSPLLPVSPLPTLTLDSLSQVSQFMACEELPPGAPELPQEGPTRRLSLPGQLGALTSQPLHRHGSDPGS
- ASSAY_NOTES: Inhibition of human ERG expressed in CHL cells assessed as tail current at 10 uM after 7 mins by patch clamp assay relative to control
- Assay type: cell-based
- EXPERIMENTAL_CONTEXT: CHL cells expressing human ERG
All answers are understood in %, so give the number only.

> print(dat)
                                   compound                 metric.name  unit  observed.value
1  CCN(CC)CCC/N=C(\c1ccccc1)N(CCCN(CC)CC)c1ccnc2cc(Cl)ccc12  inhibition at 7 min, 10 µM     %            21.9
2  Clc1ccc2c(N(CCCN3CCCCC3)/C(=N/CCCN3CCCCC3)c3ccccc3)ccnc2c1  inhibition at 7 min, 10 µM     %            21.7
3  CN(C)CCCN/C(=N\c1ccnc2cc(Cl)ccc12)c1ccc(Cl)cc1  inhibition at 7 min, 10 µM     %             115
4  CCN(CC)CCCN(CCCN(CC)CC)/C(=N\c1c2ccc(Cl)cc2nc2ccc(OC)nc12)C(C)C  inhibition at 7 min, 10 µM     %            32.5
5  COc1ccc2nc3cc(Cl)ccc3c(N/C(=N/CCCN3CCCCC3)c3ccccc3)c2n1  inhibition at 7 min, 10 µM     %              80

Give inhibition at 7 min, 10 µM for the following compound: CCCCN(CCCC)CCC(O)c1cc2c(Cl)cc(Cl)cc2c2cc(C(F)(F)F)ccc12 (stereo unspecified) [HALOFANTRINE]
100

Give inhibition at 7 min, 10 µM for the following compound: COc1ccc2nc3cc(Cl)ccc3c(N/C(C)=N/CCCN(C)C)c2n1
91.5

Give inhibition at 7 min, 10 µM for the following compound: CCN(CC)CCCN/C(=N\c1ccnc2cc(Cl)ccc12)c1cccnc1
101

Give inhibition at 7 min, 10 µM for the following compound: CCN(CC)CCCCN/C(=N\c1ccnc2cc(Cl)ccc12)C(C)C
54.6

Give inhibition at 7 min, 10 µM for the following compound: CN(C)CCC/N=C(\c1ccccc1)N(CCCN(C)C)c1ccnc2cc(Cl)ccc12
16.4

Give inhibition at 7 min, 10 µM for the following compound: CCN(CC)CCC/N=C(\C)N(CCCN(CC)CC)c1c2ccc(Cl)cc2nc2ccc(OC)nc12
13.8

This collection of values is drawn from ChEMBL document CHEMBL3421610.
